# assay name: cells
# test conditions: Homo sapiens, A2780AD, 48 h
# Description: Cytotoxicity against human A2780AD cells assessed as decrease in cell viability after 48 hrs by MTT assay
pIC50: −log10 of the molar value.
The label depends only on pIC50: Yes if it is at least 5, No if it is smaller.

Field: example entries. Status: answers known.
[
  {
    "molecule": "CC(=O)O[C@@]12CO[C@@H]1C[C@H](O)[C@@]1(C)C(=O)[C@H](O)C3=C(C)[C@@H](OC(=O)[C@H](O)[C@@H](NC(=O)OC(C)(C)C)c4cccc(C=O)c4)C[C@@](O)([C@@H](OC(=O)c4ccccc4)[C@H]21)C3(C)C",
    "answer label": "No"
  },
  {
    "molecule": "COc1ccc(OC)c(C(=O)O[C@H]2[C@@H]3[C@]4(OC(C)=O)CO[C@@H]4C[C@H](O)[C@@]3(C)C(=O)[C@H](O)C3=C(C)[C@@H](OC(=O)[C@H](O)[C@@H](NC(=O)OC(C)(C)C)c4cccc(CO)c4)C[C@]2(O)C3(C)C)c1",
    "answer label": "Yes"
  },
  {
    "molecule": "CC(=O)O[C@@]12CO[C@@H]1C[C@H](O)[C@@]1(C)C(=O)[C@H](O)C3=C(C)[C@@H](OC(=O)[C@H](O)[C@@H](NC(=O)OC(C)(C)C)c4cccc(CO)c4)C[C@@](O)([C@@H](OC(=O)c4cccc(OC(F)(F)F)c4)[C@H]21)C3(C)C",
    "answer label": "Yes"
  },
  {
    "molecule": "CC(=O)O[C@@]12CO[C@@H]1C[C@H](O)[C@@]1(C)C(=O)[C@H](O)C3=C(C)[C@@H](OC(=O)[C@H](O)[C@@H](NC(=O)OC(C)(C)C)c4cccc(CO)c4)C[C@@](O)([C@@H](OC(=O)c4ccccc4)[C@H]21)C3(C)C",
    "answer label": "Yes"
  },
  {
    "molecule": "CC(=O)O[C@@]12CO[C@@H]1C[C@H](O)[C@@]1(C)C(=O)[C@H](O)C3=C(C)[C@@H](OC(=O)[C@H](O)[C@@H](NC(=O)OC(C)(C)C)c4cccc(/C=C/CO)c4)C[C@@](O)([C@@H](OC(=O)c4ccccc4)[C@H]21)C3(C)C",
    "answer label": "No"
  },
  {
    "molecule": "CC(=O)O[C@@]12CO[C@@H]1C[C@H](O)[C@@]1(C)C(=O)[C@H](O)C3=C(C)[C@@H](OC(=O)[C@H](O)[C@@H](NC(=O)OC(C)(C)C)c4cccc(CCO)c4)C[C@@](O)([C@@H](OC(=O)c4ccccc4)[C@H]21)C3(C)C",
    "answer label": "No"
  }
]

Prompt: Evaluate CC(=O)O[C@@]12CO[C@@H]1C[C@H](O)[C@@]1(C)C(=O)[C@H](O)C3=C(C)[C@@H](OC(=O)[C@H](O)[C@@H](NC(=O)OC(C)(C)C)c4ccccc4)C[C@@](O)([C@@H](OC(=O)c4ccccc4)[C@H]21)C3(C)C [DOCETAXEL ANHYDROUS] : pIC50 at minimum 5?
Completion: No
